Parameter: growth. Scope: all listed entries.
test system: A549/ATCC NSCLC; assay: NCI-60 one-dose screen, 48 h (100 = growth as untreated, 0 = no growth, -100 = all killed); details: 10 µM unless noted
The panel holds about 83,000 compounds, 20% with a hit somewhere; the sample as a whole holds those more often. Activity calls are given as the source filed them. How the source made its calls: active means growth percent below 10; inactive means the rest.

Examples with their reported growth follow.
{"columns": ["COMPOUND", "growth"],
 "data": [
  ["CCC1CCc2nc3sc(C(=O)Nc4cccc(C)c4)c(N)c3cc2C1 (stereo not given)", "77.3% (inactive)"],
  ["COc1cc(OC)c(C(=O)/C=C/c2cccc(C(F)(F)F)c2)c(OC)c1", "6.1% (active)"],
  ["c1ccc(CCn2nnc3c(Nc4ccc(N5CCOCC5)cc4)ncnc32)cc1", "74.1% (inactive)"],
  ["COc1ccc(/C=C(\\C#N)c2ccc([N+](=O)[O-])cc2)c2ccccc12", "48.7% (inactive)"],
  ["COc1ccc(/C=C/C(=O)c2ccc(NC(=O)CN3CCN(c4cc5c(cc4F)c(=O)c(C(=O)O)cn5C4CC4)CC3)cc2)cc1", "96.8% (inactive)"]
]}

# evaluate next
// query Tell me the measured growth of O=C(NNC(=S)Nc1ccccc1)c1ccccn1 , please.
// result 24.3% (inactive)

Just for reference, PubChem BioAssay (NCI) is where these values come from.
